- testedSystem: T1, 4H883-bN
- T1 chain: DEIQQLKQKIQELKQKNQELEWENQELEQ
- methodSummary: two-hybrid library CCNG1;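 further: natural log of median RNA to DNA barcode read ratio; higher means stronger binding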
observedProperty: interaction score

Challenge: Quick one: interaction score of DEIQQLEQKIQELKQEIQELKWENQELEQ [4H331-bN] ?
Response given: -0.0918

Challenge: Would you mind doing DENQQLEQENQELEQKIQELKWEIQELEQ [4H1193-bN] as well?
Response given: -0.365

Challenge: Please answer likewise for DKIQQLKQEIQELEQKNQELKWEIQELKQ [4H2618-bN]
Response given: 0.595

Challenge: Lookup DENQQLEQKNQELEQKIQELEWKIQELKQ [4H1446-bN]
Response given: -0.0261

Challenge: Moving on to the next binder: DEIQELEKEIEELKRKNWELEKKIQELKR [4H118-bH]
Response given: 1.72

Challenge: How about DKNQQLEQKIQELKQKIQELEWENQELEQ [4H3427-bN] ?
Response given: -1.75

Challenge: Ok, now DENQQLEQENQELKQKIQELKWEIQELEQ [4H1257-bN]
Response given: -1.31
